Values were extracted from ChEMBL document CHEMBL4627392.

tested on: HCT-116; assay: Cytotoxicity against human HCT116 cells after 44 hrs by MTT assay; type: functional, cell-based; conditions: HCT-116, 44 h
parameter: IC50

[[record]]
smiles = "C=C1CC[C@@H](C(C)C)[C@H]2/C=C(/C(=O)OC)CC/C=C(\\C(=O)O)[C@H](O)C[C@H]12"
parameter = "IC50"
result = "> 100 µM"

